system.under.test: T1, hCD137 (FXa digested) (human, UniProt Q07011 24-186)
T1 construct: Factor Xa digestion and Protein A removed the Fc; also called human CD137 extracellular domain
experimental.details: SPR, 100 uM AMP
metric.name: binding amount (RU)

binder	unit.text	value.measured
dBBAT122-P253 (antibody, human IgG1, lambda, V domains shown) VH: EVQLVESGGDLVKPGGGLRLSCAASGFTFSTYTMNWVRQAPGKGLEWVSSISSRSNYKFYADSVKGRFTISRDNAKNSLYLQMNSLRAEDTAVYYCARFGGKNNMNWVFDYWGQGTLVTVSS VL: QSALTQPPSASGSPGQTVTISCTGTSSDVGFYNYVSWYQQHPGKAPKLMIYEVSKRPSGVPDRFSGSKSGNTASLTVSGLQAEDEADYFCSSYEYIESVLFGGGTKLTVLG	RU	4.1
